STUDY TARGET: GlcNAc(b1-2)[GlcNAc(b1-4)]Man(a1-3)[GlcNAc(b1-4)][GlcNAc(b1-2)[GlcNAc(b1-6)]Man(a1-6)]Man(b1-4)GlcNAc(b1-4)GlcNAc
ASSAY NAME: glycan array binding signal (z-score within array); higher = stronger binding
TEST SETTINGS: glycan notation: IUPAC condensed, linker removed
This excerpt belongs to a sample that is enriched for the strongest signals.
PROPERTY MEASURED: glycan array binding signal (z-score)
// no unit string in output, number only

Below are worked cases with known answers.
[
  {
    "BINDER": "LlpA (Burkholderia cenocepacia) (protein) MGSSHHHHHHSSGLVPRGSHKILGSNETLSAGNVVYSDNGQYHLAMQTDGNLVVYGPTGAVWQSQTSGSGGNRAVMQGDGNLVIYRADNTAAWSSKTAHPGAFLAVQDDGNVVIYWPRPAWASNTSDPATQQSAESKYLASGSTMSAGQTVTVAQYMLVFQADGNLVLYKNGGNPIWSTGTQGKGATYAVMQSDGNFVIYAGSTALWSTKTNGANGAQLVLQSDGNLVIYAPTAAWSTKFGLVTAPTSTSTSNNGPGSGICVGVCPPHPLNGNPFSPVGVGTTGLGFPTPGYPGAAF",
    "glycan array binding signal (z-score)": -0.839
  },
  {
    "BINDER": "Gz-CVNH (Gibberella zeae) (protein) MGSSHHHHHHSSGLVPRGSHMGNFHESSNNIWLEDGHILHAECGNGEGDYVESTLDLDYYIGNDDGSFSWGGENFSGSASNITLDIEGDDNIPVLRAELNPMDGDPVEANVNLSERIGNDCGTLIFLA",
    "glycan array binding signal (z-score)": -0.112
  },
  {
    "BINDER": "Mnn9-2N3 (Aspergillus fumigatus) (protein) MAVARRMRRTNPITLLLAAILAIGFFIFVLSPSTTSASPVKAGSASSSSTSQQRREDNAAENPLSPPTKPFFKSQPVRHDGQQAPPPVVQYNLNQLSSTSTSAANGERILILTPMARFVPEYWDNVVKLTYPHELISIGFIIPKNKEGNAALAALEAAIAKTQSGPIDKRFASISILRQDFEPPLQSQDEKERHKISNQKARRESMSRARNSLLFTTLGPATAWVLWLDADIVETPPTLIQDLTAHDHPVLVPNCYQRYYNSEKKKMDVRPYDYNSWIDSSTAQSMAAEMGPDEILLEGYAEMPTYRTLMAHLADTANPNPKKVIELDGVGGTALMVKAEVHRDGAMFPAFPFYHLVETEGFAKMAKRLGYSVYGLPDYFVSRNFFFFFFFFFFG",
    "glycan array binding signal (z-score)": -0.559
  }
]

Now let's try a different one.
// lookup glycan array binding signal (z-score) for SAOUHSC 02783 (Staphylococcus aureus), Q5HD69 (protein) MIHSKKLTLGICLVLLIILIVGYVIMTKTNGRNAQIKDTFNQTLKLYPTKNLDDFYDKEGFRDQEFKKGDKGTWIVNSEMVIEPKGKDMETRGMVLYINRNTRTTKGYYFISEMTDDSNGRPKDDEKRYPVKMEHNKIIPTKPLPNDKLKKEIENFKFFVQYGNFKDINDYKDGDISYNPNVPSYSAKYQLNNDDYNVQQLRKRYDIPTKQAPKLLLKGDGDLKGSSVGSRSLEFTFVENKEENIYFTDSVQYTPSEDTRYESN
-0.289
